# Assay Summary: qHTS of pediatric cancer cell lines to identify multiple opportunities for drug repurposing: Primary screen for SK-N-SH cells (AID 1347098); further: nearly all actives have a fitted effect of over 65% in size
# Run Conditions: SK-N-SH viability, CellTiter-Glo luminescence, 48 h; series mostly up to 57 µM
Records with an inconclusive call do not appear. Calls of active or inactive are those of the source. The call rests on the fitted dose curve; in most records, active means well fitted cell-killing curve with a large enough effect; inconclusive means small, poorly fitted or top-dose-only effect; inactive means no such curve, though single readings can be large or run the other way.
Tick one outcome: active, inactive

Look over these answered cases.
INSERT INTO results (molecule, group) VALUES
  ('C[C@H]1C[C@@H]2[C@H]([C@@H](O)C[C@@]3(C)[C@H]2CC[C@]3(O)C(=O)CO)[C@@]2(C)C=CC(=O)C=C12', 'inactive'),
  ('OC[C@]1(O)OC[C@@H](O)[C@H](O)[C@@H]1O', 'inactive'),
  ('Clc1ccc2c(c1)Nc1ccccc1S2', 'inactive'),
  ('CCCC(=O)Nc1ccc(O)c(C(C)=O)c1', 'inactive'),
  ('CC(C(O)c1ccccc1)N(C)CCOC(c1ccccc1)c1ccccc1 (stereo unspecified)', 'active');

For CCCC(=O)O[C@]1(C(=O)CCl)[C@@H](C)C[C@H]2[C@@H]3CCC4=CC(=O)C=C[C@]4(C)[C@@]3(F)C(=O)C[C@@]21C , which call appears in the assay record?
inactive

I would be grateful if you could indicate the recorded call for NCC(=O)O .
inactive

Given C[C@@H]1C[C@H]2[C@@H]3CCC4=CC(=O)C=C[C@]4(C)[C@@]3(F)[C@@H](O)C[C@]2(C)[C@@]1(O)C(=O)COC(=O)c1ccncc1 , state the outcome it received in this test.
inactive

Please indicate how the test categorized CC(CCc1ccc2c(c1)OCO2)NN (stereo unspecified) .
inactive

I would be grateful if you could indicate the recorded call for CC(C)(C)C(O)/C=C/c1ccc2c(c1)OCO2 (stereo unspecified) .
inactive

====

# Assay Summary: Primary qHTS for inhibitors of nuclear receptor binding SET domain protein 2 (NSD2) in an RCH-ACV wild type WT cells (2C) (AID 1645877); further: nearly all actives have a fitted effect of over 70% in size
# Run Conditions: RCH-ACV (leukaemia line) NSD2 WT (2C) viability, CellTiter-Glo, 72 h; series mostly up to 44.9 µM
Inconclusive results are not listed. Activity calls are given as the source filed them. Calls follow the shape of the dose curve; as a rule, active = well fitted inhibition curve with a large enough effect; inconclusive = small, poorly fitted or top-dose-only effect; inactive = no such curve, though single readings can be large or run the other way.
Give your call using only these classes: Y (active), N (inactive)

Solved entries (count: 2):
INSERT INTO results (compound, group) VALUES
  ('Cc1cc(=O)oc2cc(O[C@@H]3SC[C@@H](O)[C@H](O)[C@H]3O)ccc12', 'N'),
  ('O=C(NO)c1ccccc1', 'Y');

Entry CC(=O)O[C@@H]1CC2C3CCc4cc(OC(=O)c5ccccc5)ccc4C3CCC2(C)[C@H]1OC(C)=O (stereo partly specified) : call = ?
N

Dear colleague, could you share the recorded outcome for OC1(c2ccccc2)CCNCC1 when you have a moment?
N

Please let me know the test result on file for O=C(O)/C=C(\CC(=O)O)C(=O)O .
N

Any idea what this test logged for CN1C(CSCC(F)(F)F)Nc2cc(Cl)c(S(N)(=O)=O)cc2S1(=O)=O (stereo unspecified) ?
N

====

# Assay Summary: qHTS of pediatric cancer cell lines to identify multiple opportunities for drug repurposing: Primary screen for DAOY cells (AID 1347090);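 further: plate controls were DMSO for no effect and bortezomib for full effect; nearly all actives have a fitted effect of over 55% in size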
# Run Conditions: DAOY medulloblastoma viability, CellTiter-Glo luminescence, 48 h; series mostly up to 46 µM
# Protocol: Drug repurposing or repositioning has been offered as a strategy for drug development in oncology programs. […] [1] Shen, M et al. Quantitative high-throughput phenotypic screening of pediatric cancer cell lines identifies multiple opportunities for drug repurposing. […] Cells were assayed in growth media at a density of 500-1,000 cells/well. […] After a 15 min incubation at room temperature, samples were analyzed for luminescence intensity using a ViewLux High-throughput CCD imager equipped with clear filters.
Records with an inconclusive call do not appear. The source made the active and inactive calls. Calls follow the shape of the dose curve; as a rule, active = well fitted cell-killing curve with a large enough effect; inconclusive = small, poorly fitted or top-dose-only effect; inactive = flat fitted curve, though single readings scatter.
Measured Endpoint: outcome

These recorded examples may help you get a feel for the data.
INSERT INTO assay_data (molecule, result_value) VALUES
  ('COc1ccc2nc(SCc3ncc(C)c(OC)c3C)[nH]c2c1', 'inactive'),
  ('CC(=O)Nc1ccc(S(=O)(=O)Nc2cc(C)on2)cc1', 'inactive'),
  ('CCCCC(=O)OCC(=O)[C@H]1[C@H](C)C[C@H]2[C@@H]3C[C@H](F)C4=CC(=O)C=C[C@]4(C)[C@@]3(F)[C@@H](O)C[C@@]21C', 'inactive'),
  ('Cc1ccc(Cl)c(OCC(O)CNC(C)(C)C)c1 (stereo not drawn)', 'inactive'),
  ('CC(C)(C)c1cc(C=O)cc(C(C)(C)C)c1O', 'inactive');

From here, focus on the item given below.
Reported outcome for OCCOCCN1CCN(C(c2ccccc2)c2ccc(Cl)cc2)CC1 (stereo not drawn) : what is it?
inactive

====

# Tested System: Glutathione peroxidase 1 (Homo sapiens) (UniProt P07203)
# Sequence (P07203 whole entry, looked up): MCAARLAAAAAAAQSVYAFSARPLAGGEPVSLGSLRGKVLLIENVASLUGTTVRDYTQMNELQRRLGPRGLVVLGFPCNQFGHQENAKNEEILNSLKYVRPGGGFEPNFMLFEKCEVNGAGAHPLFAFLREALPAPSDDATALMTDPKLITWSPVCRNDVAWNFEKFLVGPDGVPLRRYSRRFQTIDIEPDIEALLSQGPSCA
# Assay Summary: Primary qHTS Assay for Inhibitors of Recombinant Selenoprotein Glutathione Peroxidase 1 (GPX1) (AID 1845191); further: nearly all actives have a fitted effect of over 65% in size
# Run Conditions: recombinant GPX1, GR-coupled NADPH fluorescence, 15 min; series mostly up to 48.8 µM
Records with an inconclusive call do not appear. Active and inactive are the calls of the source. Calls follow the shape of the dose curve; as a rule, active = well fitted inhibition curve with a large enough effect; inconclusive = small, poorly fitted or top-dose-only effect; inactive = flat fitted curve, though single readings scatter.
Measured Endpoint: outcome

INSERT INTO results (molecule, result_value) VALUES
  ('CCN(CC)C(=O)C1CN2CCc3cc(OC)c(OC)cc3C2CC1OC(C)=O (centres undefined)', 'inactive'),
  ('CC(=O)[C@@]1(O)CC[C@H]2[C@@H]3C[C@H](C)C4=CC(=O)CC[C@]4(C)[C@H]3CC[C@@]21C', 'inactive'),
  ('CCCC(=O)O[C@]1(C(=O)CC)CC[C@H]2[C@@H]3CCC4=CC(=O)CC[C@]4(C)[C@H]3[C@@H](O)C[C@@]21C', 'inactive'),
  ('CO[C@@H]1[C@@H](O[C@@H]2O[C@H](C)[C@@H](O[C@H]3C[C@@](C)(O)[C@@H](O)[C@H](C)O3)[C@H](N(C)C)[C@H]2O)[C@@H](CC=O)C[C@@H](C)[C@@H](O[C@@H]2CC[C@H](N(C)C)[C@@H](C)O2)/C=C/C=C/C[C@@H](C)OC(=O)C[C@H]1OC(C)=O', 'inactive'),
  ('CCOc1c(N2CCOCC2)cnn(C)c1=O', 'inactive'),
  ('C[C@H](CN1CCCC1)C(=O)c1ccc(C(F)(F)F)cc1', 'inactive'),
  ('CN1CC(=O)N2[C@H](c3ccc4c(c3)OCO4)c3[nH]c4ccccc4c3C[C@@H]2C1=O', 'inactive'),
  ('CC(=O)OCC(=O)Nc1cc(C#N)cc(NC(=O)COC(C)=O)c1Cl', 'inactive');

Now let's try a different one.
I would be grateful if you could share the reported outcome for CCOC(=O)NNc1nncc2ccccc12 .
inactive

====

# Assay Summary: qHTS for differential inhibitors of proliferation of Plasmodium falciparum line 7G8 (AID 1815);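 further: parasite growth measured after three days of incubation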
# Run Conditions: Plasmodium falciparum 7G8 proliferation inhibition; series mostly up to 28.7 µM
Inconclusive results are not listed. Calls of active or inactive are those of the source. Calls follow the shape of the dose curve; as a rule, active = well fitted curve in the direction sought with a large enough effect; inconclusive = small, poorly fitted or top-dose-only effect, or another doubt; inactive = no such curve, though single readings can be large or run the other way.
Pick from active, inactive when you respond.

INSERT INTO measurements (compound, group) VALUES
  ('Brc1ccc([C@H]2CN3CCSC3=N2)cc1', 'active');

# fetch the recorded call for CN(C)c1cc2c(Nc3ccc4c(cnn4Cc4ccccc4)c3)ncnc2cn1 here
active

What call does the record list for C[N+](C)(C)CCO ?
inactive

Recorded test outcome, item O=C1NC(c2cccc([N+](=O)[O-])c2)=CCN1c1ccccc1O
inactive

====

# Tested on: UISO
# Assay Summary: qHTS assay to identify novel small-molecules to repurpose for Merkel cell carcinoma treatment (AID 1296009); further: nearly all actives have a fitted effect of over 60% in size
# Run Conditions: MCC and control cell lines, CellTiter-Glo viability, 72 h; series mostly up to 46 µM
Inconclusive results are not listed. Active and inactive are the calls of the source. Calls come from the whole dose curve; as a rule, active = well fitted inhibition curve with a large enough effect; inconclusive = small, poorly fitted or top-dose-only effect; inactive = flat fitted curve, though single readings scatter.
Choose the fitting class; nothing outside 1 (active), 0 (inactive) is accepted.

INSERT INTO results (compound, tested_system, group) VALUES
  ('Oc1cccc2[nH]ccc12', 'UISO', 1);

Tell me the recorded outcome of this test for COC(=O)c1cc(Cl)ccc1NS(=O)(=O)C(F)(F)F .
0

Short answer needed: outcome of this test for COc1cc2c(cc1OC)C(=O)CC2 ?
0

Status in this test for CO[C@]1(NC(=O)CSC(F)F)C(=O)N2C(C(=O)O)=C(CSc3nnnn3CCO)CO[C@H]21 ?
0

====

# Assay Summary: Drug repurposing screens with cells derived from glioblastoma tumor samples (AID 1345199); further: on the % scale 0 is the no-effect control and ±100 the full control effect; nearly all actives have a fitted effect of over 40% in size
# Run Conditions: GBM patient neurospheres viability, ATP luminescence, 48 h; at 45.9 µM (top of the series); tumour line D
Results filed as inconclusive are left out.
Measured activity, negative = cell killing, listed per entry.
Write the number in % without appending the unit.

INSERT INTO results (molecule, result_value) VALUES
  ('NCC(=O)O', 4.74),
  ('CCOC(=O)NNc1ccc(N(CC)CC(C)O)nn1 (stereo not given)', -9.84),
  ('CC(=O)N[C@@H](CCC(N)=O)C(=O)O', -7.79),
  ('CCCCCC[C@@H](CCC)C(=O)O', -7.11),
  ('CC(C)=CCC/C(C)=C/CC/C(C)=C/CCC(=O)OC/C=C(\C)CCC=C(C)C', -0.887);

Field request: activity, negative = cell killing | item: CC1c2ccccc2CN1NC(=O)c1ccc(Cl)c(S(N)(=O)=O)c1 (stereo not given)
-6.17

Name the reported activity, negative = cell killing value associated with the molecule CC(=O)CC/C=C(\C)CC/C=C(\C)CC/C=C(\C)CCC=C(C)C
-10.7

Quick check: activity, negative = cell killing of CSc1ccc(/C=C2/C(C)=C(CC(=O)O)c3cc(F)ccc32)cc1 ?
-11.2

Bench note: what activity, negative = cell killing did C[N+]1(CC2COC(c3ccccc3)(c3ccccc3)O2)CCCCC1 (stereo not given) show?
-20.2

Given the entry CCC(C(=O)NC(=O)NC(C)=O)c1ccccc1 (stereo not given) , report its measured activity, negative = cell killing.
-13.3
